# experimental_target: Dual specificity tyrosine-phosphorylation-regulated kinase 2 (Homo sapiens)
# Sequence (Q92630 whole entry): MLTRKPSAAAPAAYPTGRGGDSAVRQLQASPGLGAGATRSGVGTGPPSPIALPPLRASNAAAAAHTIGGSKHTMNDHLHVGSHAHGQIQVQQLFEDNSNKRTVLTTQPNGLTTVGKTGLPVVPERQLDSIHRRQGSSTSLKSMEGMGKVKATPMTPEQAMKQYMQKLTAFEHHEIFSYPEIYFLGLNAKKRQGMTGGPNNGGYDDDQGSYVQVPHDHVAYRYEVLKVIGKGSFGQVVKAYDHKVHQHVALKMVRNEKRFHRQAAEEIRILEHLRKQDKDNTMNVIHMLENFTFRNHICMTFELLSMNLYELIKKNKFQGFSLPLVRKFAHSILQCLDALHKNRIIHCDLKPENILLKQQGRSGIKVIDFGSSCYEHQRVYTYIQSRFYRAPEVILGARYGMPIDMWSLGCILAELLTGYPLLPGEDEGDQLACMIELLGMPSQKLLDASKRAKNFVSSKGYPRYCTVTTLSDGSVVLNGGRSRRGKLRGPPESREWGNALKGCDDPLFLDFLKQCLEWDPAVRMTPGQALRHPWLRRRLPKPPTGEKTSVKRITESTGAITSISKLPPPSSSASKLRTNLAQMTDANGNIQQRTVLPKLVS
parameter: pIC50
Just so you know, pIC50 here is -log10 of the concentration in molar units; reply with that number alone.

Ask: Quick one: pIC50 of CCOC[C@@H](CC(C)C)NC1=N/C(=C\c2ccc3ncsc3c2)C(=O)N1 ?
Reply: 6.84

Ask: How about this compound: O=C1NC(NC2CCCCOC2)=N/C1=C\c1ccc2ncsc2c1 (racemic)
Reply: 6.15

Ask: How about this compound: Cc1nc2ccc(/C=C3\N=C(NC4CCCCC4)NC3=O)cc2s1
Reply: 5.33

Ask: How about this compound: Cc1cnc(CNC2=N/C(=C\c3ccc4ncsc4c3)C(=O)N2)cn1
Reply: 5.40

Ask: How about this compound: O=C1NC(N[C@H]2C3CC4CC2C[C@](O)(C4)C3)=N/C1=C\c1ccc2ncsc2c1
Reply: 6.53

Ask: How about this compound: O=C1NC(NC2CCCNC2=O)=N/C1=C\c1ccc2ncsc2c1 (racemic)
Reply: 5.68

Ask: How about this compound: COc1ccc(/C=C2\N=C(Nc3ccc(N4CCN(C)CC4)cc3)NC2=O)cc1O
Reply: 7.82

Ask: How about this compound: O=C1NC(NC2CCCCC2)=N/C1=C\c1ccc2c(c1)CCO2
Reply: 5.47

Where these numbers come from: ChEMBL document CHEMBL5360622
